System: DU-145 prostate
Measurement notes: NCI tumour cell line growth inhibition, 48 h
Parameter measured: TGI

**Q:** Name the reported TGI value associated with the molecule `C=C1C(=O)[C@]23C[C@H]1C[C@@H](O)[C@H]2[C@]1(COC3=O)[C@@H](OC(C)=O)CC[C@@](C)(COC(C)=O)[C@H]1C=O`
**A:** > 50 µM

**Q:** Name the reported TGI value associated with the molecule `O=C1Nc2ccccc2/C1=C\c1cccc(/C=C2/C(=O)Nc3ccccc32)n1`
**A:** 2.26 µM

**Q:** Name the reported TGI value associated with the molecule `CSc1c2c(C)n[nH]c2nn1-c1ccccc1`
**A:** > 100 µM

* * *

Tested on: CAKI-1 renal
Measurement notes: NCI tumour cell line growth inhibition, 48 h
Parameter measured: TGI (µM)
Reply numerically in µM, unit not repeated.

Here is how some compounds turned out for TGI.
> print(dat)
                              smiles.record  reported.result
1  N/C(=N\S(=O)(=O)c1ccc(-c2ccccn2)s1)Nc1ccc(Cl)cc1             24.9
2  O=C1Nc2ccccc2/C1=C\c1cccc(/C=C2/C(=O)Nc3ccccc32)n1             1.27
3  CN(C)C[C@H]1CCn2c(c(C3=C(c4cn(C)c5ccccc45)C(=O)NC3=O)c3ccccc32)C1             8.74
4  CCn1c(-c2c(Cl)cc(O)cc2Cl)cc2c(Cl)cc(O)cc21             30.5

**Q:** Name the reported TGI value associated with the compound `Cc1ccc2[nH]c3c(c2c1)N=c1ccccc1=NO3`
**A:** 47.6

* * *

This listing pairs molecules with measured log10 TGI.
Tested on: HCT-15 colon
Measurement notes: NCI tumour cell line growth inhibition, 48 h
Recall that a logarithmic scale is used here: each number is log10 of TGI in µM.

Here is how some molecules turned out for log10 TGI.
> print(dat)
                                   molecule  reported.result
1  COC(=O)[C@H]1[C@@H](O)[C@@]2(O)c3c(OC)cc(OC)cc3O[C@@]2(c2ccc3c(c2)OCO3)[C@@H]1c1ccccc1            -0.97
2  CCC[CH2][Sn]([CH2]CCC)([CH2]CCC)[O]C(=O)C(OC(C)=O)c1ccccc1 (centres undefined)            -0.55
3  O=C(Nc1ccc2ncnc(Nc3ccc(Oc4cccc(F)c4)c(Cl)c3)c2c1)c1ccc(CN2CCOCC2)cc1             0.95
4  c1ccc2[nH]c3c(N=NC4=NCCN4)c4ccccc4c-3nc2c1             1.20

Continue with the next molecule.
**Q:** Name the reported log10 TGI value associated with the molecule `COc1cc(OC)cc(-c2nc3sccn3c2/C=N/N=C(N)N)c1`
**A:** 1.17

* * *

Tested on: SK-OV-3 ovarian
Measurement notes: NCI tumour cell line growth inhibition, 48 h; in the data active = GI50 below about 0.43 µM; inactive = the rest
Answer with one of the outcomes T (active), F (inactive)

Compound	Class assignment
CC(=O)O[C@@]12CO[C@@H]1C[C@H](O)[C@@]1(C)C(=O)[C@H](O)C3=C(C)[C@@H](OC(=O)[C@H](O)[C@@H](NC(=O)OC(C)(C)C)c4ccccc4)C[C@@](O)([C@@H](OC(=O)c4ccccc4)C12)C3(C)C (stereo partly drawn)	T
CC(C)=O.O=C([O-])C(F)(F)F.O=C([O-])C(F)(F)F.O=C([O-])C(F)(F)F.O=C([O-])C(F)(F)F.[Rh+2].[Rh+2]	F

# input for lookup
**Q:** Entry `Fc1ccc2[nH]cc(-c3nc(-c4c[nH]c5ccncc45)cs3)c2c1` : call = ?
**A:** F
